# runParameters: human gut metagenome, 24 h, 2 µM; note: call rule not given here
measureName: Bacterial Biotransformation

1) CN1CCN(C2=Nc3cc(Cl)ccc3Nc3ccccc32)CC1	Compound NOT metabolized
2) CCc1nc(N)nc(N)c1-c1ccc(Cl)cc1	Compound NOT metabolized
3) Cc1nc(-c2ccc(OCC(C)C)c(C#N)c2)sc1C(=O)O	Compound metabolized
4) CN1CC(=O)N2[C@H](c3ccc4c(c3)OCO4)c3[nH]c4ccccc4c3C[C@@H]2C1=O	Compound metabolized
5) O=C1NCC2(CCN(CCc3ccccc3)CC2)O1 [FENSPIRIDE]	Compound NOT metabolized
6) COc1ccc2c3c1O[C@H]1C[C@@H](O)C=C[C@@]31CCN(C)C2	Compound metabolized

Qu. Reported Bacterial Biotransformation, compound CCN(CC)CCOCCOC(=O)C1(c2ccccc2)CCCC1.O=C(O)CC(O)(CC(=O)O)C(=O)O [CARBETAPENTANE CITRATE] : ____
Ans. Compound metabolized

Qu. Quick one: Bacterial Biotransformation for CCCC1O[C@@H]2C[C@H]3[C@@H]4CCC5=CC(=O)C=C[C@]5(C)[C@H]4[C@@H](O)C[C@]3(C)[C@]2(C(=O)CO)O1 (some centres undefined) [BUDESONIDE] ?
Ans. Compound metabolized

Qu. Sample CC(C)OC(=O)C(C)(C)Oc1ccc(C(=O)c2ccc(Cl)cc2)cc1 [FENOFIBRATE] — what was its Bacterial Biotransformation?
Ans. Compound metabolized

Qu. Given the entry "COc1cc2c(c(OC)c1OC)-c1ccc(OC)c(=O)cc1[C@@H](NC(C)=O)CC2" , report its measured Bacterial Biotransformation.
Ans. Compound metabolized

Qu. Entry "C#C[C@]1(O)CC[C@H]2[C@@H]3CCC4=Cc5oncc5C[C@]4(C)[C@H]3CC[C@@]21C" : reported Bacterial Biotransformation = ?
Ans. Compound metabolized

Qu. Record request: Bacterial Biotransformation value, item COc1ccc(CCN(C)CCCC(C#N)(c2ccc(OC)c(OC)c2)C(C)C)cc1OC (centres undefined)
Ans. Compound metabolized

Qu. Which Bacterial Biotransformation reading was recorded for the compound CC(C)(C(=O)O)c1ccc(C(O)CCCN2CCC(C(O)(c3ccccc3)c3ccccc3)CC2)cc1 (centres undefined) [FEXOFENADINE] ?
Ans. Compound NOT metabolized

Qu. Which Bacterial Biotransformation is listed for CCN(CC)CC#CCOC(=O)C(O)(c1ccccc1)C1CCCCC1.Cl (centres undefined) [OXYBUTYNIN CHLORIDE] ?
Ans. Compound metabolized
